system: Streptococcus uberis ALP8092; assay type: cell-based
Ends that are not written are not given here.
endpoint label: MIC (µM)
The answer is to be given in µM; state only the numeric part.

Below, 3 sequences whose answers are already recorded.
Ask | Which MIC is listed for GLPKLHFRRKKGKLVSFPLKFKFKIRL [sBMAP-27] ?
Reply | 8.33

Ask | I have this sequence here, RFRPPIRRPPIRPPFYPPFRPPIRPPIFPPIRPPFRPPLGPFP [Bac5] , and I need its recorded MIC.
Reply | 20.00

Ask | Look up MIC for this sequence: GGLRSLGRKILRAWKKYGPIIVPIIRIG [BMAP-28]
Reply | 10.00

More entries:
Ask | GET /values?readout=MIC&item= GRFKRFRKKFKKLFKKLSPVIPLLHLG [BMAP-27]
Reply | 4.72

Ask | Report MIC for AGLFRRLRDSIRRGQQKILEKARRIGERIKDIFRG [BMAP-34] please.
Reply | 5.00
